assay: qHTS Assay for inhibitors of the human cytomegalovirus (HCMV); details: HFF cells, HCMV-luciferase reporter, 72 h; at 57.5 µM; stronger effect = lower value; also: % is scaled to controls: 0 for no effect and ±100 for the full control effect
About 18,000 (4.4%) of roughly 410,000 compounds were called active. Inconclusive results (about 7%) are left out. Many of the other results were omitted from the sample, so actives are more common in it than they were.
attribute_measured: activity change, negative = inhibition (%)

O=C(Cn1c(-c2cccs2)cc2ccccc21)NCCc1ccc(Cl)cc1
-112
Cc1cccc(N2CCN(C(=O)Cn3ncc4c5ccccc5n(C)c4c3=O)CC2C)c1 (stereo not drawn)
17.6
CN(C(=O)CSc1nc2ccccc2n1Cc1ccccc1C#N)c1ccccc1
-3.45
Cc1cccc(Cn2c(=O)n(CCC(=O)NCCc3ccc(Cl)cc3)c(=O)c3sccc32)c1
-10.1
Cc1ccc(N2CCN(c3ccc([N+](=O)[O-])cn3)CC2)c(C)c1
-6
CCCCN1CCNC1=S
47
CCC1=Nc2cc(C(=O)NCC(C)c3ccccc3)ccc2Sc2ccc(C)cc21 (stereo not drawn)
-7.44
O=C(NCc1ccc2c(c1)CCN2C(=O)c1ccccc1)Nc1cc(F)ccc1F
-84.8
CC1CN(C(=O)N2CCC(C(=O)NCc3cccs3)CC2)c2ccccc2O1 (stereo not drawn)
8.43
COc1ccc2c(c1)c(=Cc1ccc(N(C)C)cc1)c1cc(-c3ccccc3)[n+](C)n12
-99.1
Cc1nc(=O)c(-c2ccccc2)c(C)n1-c1ccc(Br)cc1
-37
Cc1ccc2nc(-c3ccc(Br)cc3)cn2c1
-89.7
CCOc1cccc2sc(N3CCN(C(=O)C4CC4)CC3)nc12
-12.2

---

assay: qHTS Assay for inhibitors of the human cytomegalovirus (HCMV); settings: HFF cells, HCMV-luciferase reporter, 72 h; at 57.5 µM; stronger effect = lower value; also: % is scaled to controls: 0 for no effect and ±100 for the full control effect
In all, about 410,000 compounds went through this assay and about 18,000 (4.4%) were called active. Roughly 7% stayed inconclusive and do not appear here. The full list was thinned out, with actives kept by preference.
Listed here are molecules together with their documented activity change, negative = inhibition.
attribute_measured: activity change, negative = inhibition (%)

CCOc1ccccc1NC(=O)C1=C(C)Nc2ncnn2C1c1ccc(NC(C)=O)cc1 (stereo not drawn)
4.88
COc1cccc(N2CCN(S(=O)(=O)c3ccc4c(c3)CCCN4C(C)=O)CC2)c1
-9.24
CCN(CC(=O)Nc1c(F)cccc1F)C(=O)CN1c2cccc3cccc(c23)S1(=O)=O
-81.2
Cc1cc(C)c(S(=O)(=O)NN=C2c3ccccc3[C@H]3Cc4csc[n+]4[C@@H]23)c(C)c1
-27.2
CC(=O)N1c2ccc(S(=O)(=O)N3CCCC(C(=O)Nc4ccc(C)cc4C)C3)cc2CC1C (stereo not drawn)
33.5
COC(=O)c1ccc(CSc2nnc(NC(C)C)s2)cc1
-2.57
COc1cccc(-n2c(SCC(=O)NC3CCCCC3)nc3n[nH]c(C)c3c2=N)c1
28
O=C1OCC2=C1C(c1ccc(Cl)cc1)c1cc3c(cc1O2)OCO3 (stereo not drawn)
37.6

---

test: qHTS Assay for inhibitors of the human cytomegalovirus (HCMV); details: HFF cells, HCMV-luciferase reporter, 72 h; at 57.5 µM; stronger effect = lower value; also: % is scaled to controls: 0 for no effect and ±100 for the full control effect
The campaign covered roughly 410,000 compounds. About 18,000 (4.4%) were called active. Inconclusive results (about 7%) are left out. The sample holds actives, similar compounds and a random draw of the others, so the mix is not that of the screen.
Listed here are compounds together with their documented activity change, negative = inhibition.
attribute_measured: activity change, negative = inhibition (%)

Cc1cc(C)cc(OC(C)C(=O)Nc2nc3c(s2)CCCC3)c1 (configuration not stated)
-26.6
Cc1ccc(C)c(N2CCN(C(=O)CCCCCn3c(=S)[nH]c4ccc(N5CCOCC5)cc4c3=O)CC2)c1
-88.3
COc1ccc2c(CC(=O)N3CCc4cc(OC)c(OC)cc4C3)coc2c1
-13.1
COc1ccc(-c2cc(C(F)(F)F)nc(SCC(=O)N(C)Cc3ccccc3)n2)cc1OC
-16.1
COc1ccccc1N(C)S(=O)(=O)c1ccc(Cl)c(C(=O)Nc2ccncc2)c1
-67.6
O=C(Nn1cc(C(=O)N2CCN(c3ccccc3F)CC2)c2ccccc2c1=O)c1cnccn1
43.2
COc1ccc(CCN2C(=O)c3oc4cc(C)cc(C)c4c(=O)c3C2c2ccccc2F)cc1OC (configuration not stated)
-2.86
O=C(Nc1cc2c3c(c1)C1CCCC1CN3CC1CCCC21)c1ccc([N+](=O)[O-])cc1 (configuration not stated)
-31.6
Cc1ccc(C(=O)Nc2ccc(OCc3cc(=O)n4c(C)csc4n3)cc2)cc1
13.5
Cc1ccc(CNC(=O)CCc2c(C)nn(-c3ccc(N4CCCC4)nn3)c2C)cc1
19.6
O=C1CCCCC1C(=O)c1ccccc1 (configuration not stated)
7.64
CCOC(=O)[C@]12CCC=C1N(Cc1cccc3ccccc13)C(=O)[C@H](CC(=O)NCc1cccc(C(F)(F)F)c1)C2
19.4
Cc1cccc(-c2nc(SCC(=O)Nc3cc(C)on3)c3c(=O)n(C)c(=O)n(C)c3n2)c1
-3.8
O=C(NCc1cccnc1)C(=O)NCC(c1cccnc1)N1CCN(c2ccccc2)CC1 (configuration not stated)
5.63
Cc1ccc(C)c(N2CCN(C(=O)CCc3c(C)nc4c(c3C)c(=O)n(C)c(=O)n4C)CC2)c1
-21.4
Cc1cccc(OCC(=O)NCCNC(=O)c2cccnc2)c1
-66.9
Cc1cccc(OCCNC(=S)NC(=O)c2cccnc2)c1
-37.9
